GI50 reference
Test system: U-251
Assay: NCI tumour cell line growth inhibition, 48 h
Activity calls are given as the source filed them. Cut-off read from the data, not from the text of the source: active = GI50 up to about 1.1 µM and inactive = higher.
measuredParameter: GI50

compound	valueReported
CC(=O)O[C@H]1CC2C(C3CCC(C(C)CCC(N)=O)[C@]31C)[C@H](OC(C)=O)C[C@@H]1CC3(CC[C@]21C)OOC1(CC[C@]2(C)C4C[C@H](OC(C)=O)[C@]5(C)C(C(C)CCC(N)=O)CCC5C4[C@H](OC(C)=O)C[C@@H]2C1)OO3 (stereo partly drawn)	1.6 µM (inactive)
CC(C)COP(C)(=O)C(N)(C(F)(F)F)C(F)(F)F (stereo not drawn)	> 100 µM (inactive)
COc1ccc2[nH]cc(CCNC(=O)[C@H](Cc3ccccc3)NC(=O)[C@@H](NCC(F)(F)F)C(C)C)c2c1	21.4 µM (inactive)
O=C(NCCCNCCN1C(=O)c2cccc3cc([N+](=O)[O-])cc(c23)C1=O)c1cc(-c2ccccc2)nc2ccccc12	2.09 µM (inactive)
O=C(CN1CCCCC1)c1ccc2c(c1)Sc1ccccc1O2	15.5 µM (inactive)
C[n+]1c(-c2ccc(/C=C/C=N\NC(=O)c3ccc(C(=O)N/N=C\C=C\c4ccc(-c5cn6ccccc6[n+]5C)cc4)cc3)cc2)cn2ccccc21	44.7 µM (inactive)
COc1c(O)cc(O)c2c(=O)cc(-c3ccccc3)oc12	63.2 µM (inactive)
COCN1C(=O)[C@@H]2CCCN2C(=O)c2cc(OC)c(Cc3ccccc3)cc21	94.6 µM (inactive)

---

System: UACC-257
Assay: NCI tumour cell line growth inhibition, 48 h
Active and inactive are the calls of the source. Rule as the data show it: active = GI50 up to about 1.1 µM and inactive = higher.
Labels: 1.0 = active, 0.0 = inactive

molecule	cat
N#CCCc1nc2ccc(Br)cc2c(=O)n1-c1ccc(O)c([N+](=O)[O-])c1	0.0
CCOC(=O)c1ccc2nc(-c3ccc(S(=O)(=O)F)cc3)cc(O)c2c1	0.0
Cc1ccc(S(=O)(=O)c2c(N)c3nccn3c3nc4ccccc4nc23)cc1	0.0
CN1C(=O)C(O)C[C@@H]1c1ccc(F)cc1 (stereo partly drawn)	0.0
Cc1ccccc1Nc1nc2c(s1)C(=O)c1ccccc1C2=O	0.0
O=C(O)/C=C/c1ccncc1	0.0
C/C(=N\N=C(/S)SCc1ccccc1)c1ccccn1	1.0
CC(C)(Cl)C(Br)CC/C(CBr)=C(/Cl)CCl.CC(C)(Cl)C(Br)CC/C(CBr)=C(\Cl)CCl (stereo not drawn)	0.0
Cc1ccc(/C=C2/N/C(=N\N=C/c3ccccc3)NC2=O)cc1	0.0
Cc1cc2nc3ccc(N(C)C)cc3[s+]c2cc1N [TOLONIUM CHLORIDE]	0.0
Cc1csc(-n2c(C)nc3cc(Cl)ccc3c2=O)n1	0.0
CC(C)=CCC[C@@H](C)C1=C(O)C(=O)C(C)=C(Nc2ccccc2Cl)C1=O	0.0
Cc1cc(S(=O)(=O)NC2=Nc3cccc(F)c3CN2)c(S)cc1Cl	0.0
O=C1NC2C=CN(Cc3ccccc3)C=C2C(=O)N2CCCC12 (stereo not drawn)	0.0
Cc1ccc(C(=O)Nc2ccc(S(=O)(=O)O)c3cc(S(=O)(=O)O)cc(S(=O)(=O)O)c23)cc1NC(=S)Nc1cc(C(=O)Nc2ccc(S(=O)(=O)O)c3cc(S(=O)(=O)O)cc(S(=O)(=O)O)c23)ccc1C	0.0
COc1cc2c(cc1OCCCCCCCCN1C(=O)c3cccc4cccc(c34)C1=O)N=C[C@@H]1CCCN1C2=O	0.0
CC(C)(C)NC(=O)CCC1C(C(=O)NC(C)(C)C)C2(Cl)C(Cl)=C(Cl)C1(Cl)C2(Cl)Cl (stereo not drawn)	0.0
Cc1ccccc1C(=O)c1c(O)c2c(c(O)c1Br)CCCC2	0.0
CC(C)(C)/N=C1\C(=O)C2(C)CCC1C2(C)C (stereo not drawn)	0.0
COc1ccc(NC(C)=O)c(C(=O)CCNC(C)=O)c1	0.0
C/C=C1\C(=O)OC2CCN3CCC(COC(=O)C(C)(O)C(C)C1O)C23 (stereo not drawn)	0.0
Cc1cn(CCCCCCC2=NCCCN2)c(=O)[nH]c1=O	0.0
Cc1ccc(C2=Nc3cccc4cccc(c34)N2)cc1	0.0
O=C1CC(=O)NC(NN2C(=O)/C(=C/C(=O)c3ccco3)N=C2c2ccccc2)=N1	0.0
CC1=C(N2CC2)C(=O)c2ccccc2C1=O	1.0
CC(C)OCC(O)COc1ccc2ccc(=O)oc2c1 (stereo not drawn)	0.0
CCOC(=O)C1=C(Nc2ccc(Cl)cc2Cl)OC/C1=N\NS(=O)(=O)c1ccc(C)cc1	0.0
Cc1cccc(C)c1NC(=O)C(=O)CC(=O)/C=C/c1ccccc1	0.0
C=C(C)C1CC=C(C)[C@](O)(C2(O)C[C@H](C(=C)C)CC=C2C)C1 (stereo partly drawn)	0.0
O=C1CNc2cc(N3CCOCC3)ccc2N1	0.0
CC(=O)O/N=C/c1cc2c(cc1Br)OCO2	0.0
O=C(/C=C1\C[C@H]2C=Nc3ccccc3C(=O)N2C1)NCCCCCNC(=O)/C=C1\C[C@H]2C=Nc3ccccc3C(=O)N2C1	0.0
O=C(Cc1ccccc1)C(c1ccccc1)S(=O)(=O)c1ccccc1 (stereo not drawn)	0.0
COc1cc2c(cc1OS(C)(=O)=O)N=C[C@@H]1CCCN1C2=O	0.0
COc1cc2c(cc1OC(=O)c1cc3ccccc3[nH]1)N=C[C@@H]1CCCN1C2=O	1.0
CCNC(=S)N/N=C1\C(=O)Nc2ccc([N+](=O)[O-])cc21	0.0
CC(C(O)c1ccccc1)C(O)(C(F)(F)F)C(F)(F)F (stereo not drawn)	0.0
CO/N=C(\C)CCC#Cc1ccccc1C(=O)OC	0.0
CC(C)C[C@H](NC(=O)[C@H](CCc1ccccc1)NC(=O)c1ccc2ccccc2n1)B(O)O	1.0
O=C(Cc1ccccc1)Oc1ccc2c(-c3ccccc3)c(C(=O)Nc3ccc(Cl)cc3)c(=O)oc2c1	0.0
COc1ccc(-c2c(C#N)c(S)n(NS(=O)(=O)c3ccccc3)c(=O)c2C#N)cc1	0.0
O=C(c1ccc(Cl)cc1Cl)N(Cc1cccnc1)C(=S)N(Cc1cccnc1)C(=O)c1ccc(Cl)cc1Cl	0.0
NS(=O)(=O)c1ccc(/C=C/c2ccc(O)cc2)cc1	0.0

Reference for the values: ChEMBL document CHEMBL1201862
